Test system: human tryptase-like protein
Test: Enzyme activity with fluorogenic substrates (substrate specificity)
Assay type: biochemical
Settings: activity relative to Boc-Gln-Gly-Arg-MCA (100); substrate 100 µM
Starred links: 1 amine or outer side, 2 acyl side, 3 side chain; linkers in the order of their positions; H or OH if unused. Residues, ends and D or L forms follow the SMILES beside them. *: point of attachment. Glutaryl = O=C(CCCC(=O)[*:2])[*:1]; AMC = Cc1cc(=O)oc2cc(N*)ccc12; Suc = O=C(CCC(=O)[*:2])[*:1]; Boc = CC(C)(C)OC(=O)*
% below 20% gives F; % at or above it gives T.

Answered examples (3):
{"columns": ["compound", "target.entity", "group"],
 "data": [
  ["Cc1cc(=O)oc2cc(NC(=O)[C@H](Cc3ccccc3)NC(=O)[C@@H]3CCCN3C(=O)[C@H](C)NC(=O)[C@H](C)NC(=O)CCC(=O)O)ccc12 [Suc-Ala-Ala-Pro-Phe-MCA] (Suc-AAPF-{AMC})", "human tryptase-like protein", "F"],
  ["Cc1cc(=O)oc2cc(NC(=O)[C@H](CCCNC(=N)N)NC(=O)[C@H](CCCNC(=N)N)NC(=O)CNC(=O)OC(C)(C)C)ccc12 [Boc-Gly-Arg-Arg-MCA]", "human tryptase-like protein", "F"],
  ["Cc1cc(=O)oc2cc(NC(=O)[C@H](Cc3ccc(O)cc3)NC(=O)[C@@H](NC(=O)[C@H](CC(C)C)NC(=O)[C@H](CC(C)C)NC(=O)CCC(=O)O)C(C)C)ccc12 [Suc-Leu-Leu-Val-Tyr-MCA] (Suc-LLVY-{AMC})", "human tryptase-like protein", "T"]
]}

Confirm if % reported for the compound Cc1cc(=O)oc2cc(NC(=O)[C@H](CCCNC(=N)N)NC(=O)CNC(=O)CCCC(=O)O)ccc12 [Glt-Gly-Arg-MCA] (Glutaryl-Gly-Arg-{AMC}) is 20% or above.
T

Confirm if % reported for the compound Cc1cc(=O)oc2cc(NC(=O)[C@H](CCCCN)NC(=O)[C@H](CCCCN)NC(=O)[C@H](CCC(=O)O)NC(=O)OC(C)(C)C)ccc12 [Boc-Glu-Lys-Lys-MCA] (Boc-Glu-Lys-Lys-{AMC}) is 20% or above.
T

Confirm if % reported for the compound Cc1cc(=O)oc2cc(NC(=O)[C@H](CCCNC(=N)N)NC(=O)[C@@H]3CCCN3C(=O)[C@@H](NC(=O)OC(C)(C)C)C(C)C)ccc12 [Boc-Val-Pro-Arg-MCA] (Boc-Val-Pro-Arg-{AMC}) is 20% or above.
F

Confirm if % reported for the compound Cc1cc(=O)oc2cc(NC(=O)[C@H](CCCNC(=N)N)NC(=O)[C@H](C)NC(=O)[C@H](CCC(N)=O)NC(=O)OC(C)(C)C)ccc12 [Boc-Gln-Ala-Arg-MCA] (Boc-Gln-Ala-Arg-{AMC}) is 20% or above.
T

Confirm if % reported for the compound Cc1cc(=O)oc2cc(NC(=O)[C@H](CCCNC(=N)N)NC(=O)[C@@H]3CCCN3C(=O)CNC(=O)[C@H](C)NC(=O)OC(C)(C)C)ccc12 [Boc-Ala-Gly-Pro-Arg-MCA] (Boc-AGPR-{AMC}) is 20% or above.
T

Confirm if % reported for the compound Cc1cc(=O)oc2cc(NC(=O)[C@H](CCCNC(=N)N)NC(=O)[C@H](CCCNC(=N)N)NC(=O)[C@H](CCC(N)=O)NC(=O)OC(C)(C)C)ccc12 [Boc-Gln-Arg-Arg-MCA] (Boc-Gln-Arg-Arg-{AMC}) is 20% or above.
T

Confirm if % reported for the compound Cc1cc(=O)oc2cc(NC(=O)[C@H](CCCNC(=N)N)NC(=O)[C@H](CCCNC(=N)N)NC(=O)[C@H](CC(C)C)NC(=O)OC(C)(C)C)ccc12 [Boc-Leu-Arg-Arg-MCA] (Boc-Leu-Arg-Arg-{AMC}) is 20% or above.
F

Confirm if % reported for the compound CC[C@H](C)[C@H](NC(=O)OC(C)(C)C)C(=O)N[C@@H](CCC(=O)O)C(=O)NCC(=O)N[C@@H](CCCNC(=N)N)C(=O)Nc1ccc2c(C)cc(=O)oc2c1 [Boc-Ile-Glu-Gly-Arg-MCA] (Boc-IEGR-{AMC}) is 20% or above.
T

Confirm if % reported for the compound Cc1cc(=O)oc2cc(NC(=O)[C@H](CCCNC(=N)N)NC(=O)CNC(=O)[C@H](CCC(N)=O)NC(=O)OC(C)(C)C)ccc12 [Boc-Gln-Gly-Arg-MCA] (Boc-Gln-Gly-Arg-{AMC}) is 20% or above.
T

Confirm if % reported for the compound Cc1cc(=O)oc2cc(NC(=O)[C@H](CCCNC(=N)N)NC(=O)[C@H](Cc3ccccc3)NC(=O)[C@@H]3CCCN3)ccc12 [Pro-Phe-Arg-MCA] (H-Pro-Phe-Arg-{AMC}) is 20% or above.
T

---

Listing of entries alongside the reported Inhibition (%).
Test system: human tryptase-like protein
Assay: Effects of inhibitors on the trypsin-like activity
Type: biochemical
Details: 10 µM inhibitor; substrate Boc-Gln-Gly-Arg-MCA
Give just the numeric value; % need not be written.

Study these solved cases before continuing.
{"columns": ["compound", "target.entity", "Inhibition (%)"],
 "data": [
  ["O=S(=O)(F)Cc1ccccc1 [PMSF, phenylmethylsulfonyl fluoride]", "human tryptase-like protein", 13],
  ["CC(C)C[C@H](NP(=O)(O)O[C@@H]1O[C@@H](C)[C@H](O)[C@@H](O)[C@H]1O)C(=O)N[C@@H](Cc1c[nH]c2ccccc12)C(=O)O", "human tryptase-like protein", 3]
]}

Lab note: need Inhibition (%) with human tryptase-like protein for entry CC(C)CCNC(=O)[C@H](CC(C)C)NC(=O)[C@H]1O[C@@H]1C(=O)O [E-64c] , please look it up.
11

Lab note: need Inhibition (%) with human tryptase-like protein for entry CC(C)C[C@H](NC(=O)[C@@H](O)[C@H](N)Cc1ccccc1)C(=O)O , please look it up.
0

---

Tested on: human tryptase-like protein
Assay: Effects of inhibitors on the trypsin-like activity
Format: biochemical
Details: 10 µM inhibitor; substrate Boc-Gln-Gly-Arg-MCA; control 843.1
Method: Enzyme activity of the human tryptase-like protein during the course of purification or after purification was measured as follows. The enzyme sample was added to 0.1 M Tris-HCl buffer (pH 7.8) containing 25 mM calcium chloride and 100 µM of fluorogenic substrate. The fluorescence was measured with excitation and emmision wavelength of 380 nm and 460 nm, respectively. […]
Non-standard residues stand in square brackets, D forms with d. Residues, ends and D or L forms follow the SMILES beside them. *: point of attachment. Sta = CC(C)C[C@H](N)[C@@H](O)CC(=O)O; Isovaleryl = CC(C)CC(=O)*
observable: Activity (µU/ml)
Give just the numeric value; µU/ml need not be written.

{"columns": ["compound", "Activity (µU/ml)"],
 "data": [
  ["CC(C)CCNC(=O)[C@H](CC(C)C)NC(=O)[C@H]1O[C@@H]1C(=O)O [E-64c]", 754.4],
  ["CC(C)C[C@H](NC(=O)[C@@H](O)[C@H](N)Cc1ccccc1)C(=O)O", 843.0],
  ["CC(C)C[C@H](NC(=O)N[C@H](C(=O)N[C@@H](CCC(N)=O)C(=O)N[C@@H](C)C=O)[C@@H]1CCNC(=N)N1)C(=O)O", 710.0],
  ["Cc1ccc(S(=O)(=O)N[C@@H](CCCCN)C(=O)CCl)cc1", 691.3]
]}

Now examine the next entry.
Report Activity for CC(C)CC(=O)N[C@H](C(=O)N[C@H](C(=O)N[C@@H](CC(C)C)[C@@H](O)CC(=O)N[C@@H](C)C(=O)N[C@@H](CC(C)C)[C@@H](O)CC(=O)O)C(C)C)C(C)C [Pepstatin] (Isovaleryl-VV[Sta]A[Sta]-OH) please.
845.0

---

System: human tryptase-like protein
Experiment: Enzyme activity with fluorogenic substrates (substrate specificity)
Assay type: biochemical
Details: activity relative to Boc-Gln-Gly-Arg-MCA (100); substrate 100 µM
Residues, ends and D or L forms follow the SMILES beside them. *: point of attachment. AMC = Cc1cc(=O)oc2cc(N*)ccc12; Boc = CC(C)(C)OC(=O)*
observable: %
Answer with the figure and its unit, nothing else.

Study these solved cases before continuing.
{"columns": ["compound", "%"],
 "data": [
  ["Cc1cc(=O)oc2cc(NC(=O)[C@H](CCCNC(=N)N)NC(=O)[C@H](CO)NC(=O)[C@H](Cc3ccccc3)NC(=O)OC(C)(C)C)ccc12 [Boc-Phe-Ser-Arg-MCA] (Boc-Phe-Ser-Arg-{AMC})", "24%"],
  ["Cc1cc(=O)oc2cc(NC(=O)[C@H](CCCNC(=N)N)NC(=O)[C@H](CCCCN)NC(=O)CNC(=O)OC(C)(C)C)ccc12 [Boc-Gly-Lys-Arg-MCA] (Boc-Gly-Lys-Arg-{AMC})", "24%"]
]}

Now examine the next entry.
Report % for Cc1cc(=O)oc2cc(NC(=O)[C@H](CCCNC(=N)N)NC(=O)[C@@H](NC(=O)[C@H](CC(C)C)NC(=O)OC(C)(C)C)[C@@H](C)O)ccc12 [Boc-Leu-Thr-Arg-MCA] (Boc-Leu-Thr-Arg-{AMC}) please.
15%
